# credit: paper PMC9455983

This section presents compounds with their documented Ki values.
# ASSAY_TARGET: delta-opioid receptor (DOR) (Rattus norvegicus, UniProt P33533)
# Construct: Rat cortices were homogenized using 50 mM Tris, pH 7.4, 10 mM MgCl2-6H2O, 200 µM PMSF; from tissue; host or cells: rat cortex membranes
# Sequence (P33533 whole entry): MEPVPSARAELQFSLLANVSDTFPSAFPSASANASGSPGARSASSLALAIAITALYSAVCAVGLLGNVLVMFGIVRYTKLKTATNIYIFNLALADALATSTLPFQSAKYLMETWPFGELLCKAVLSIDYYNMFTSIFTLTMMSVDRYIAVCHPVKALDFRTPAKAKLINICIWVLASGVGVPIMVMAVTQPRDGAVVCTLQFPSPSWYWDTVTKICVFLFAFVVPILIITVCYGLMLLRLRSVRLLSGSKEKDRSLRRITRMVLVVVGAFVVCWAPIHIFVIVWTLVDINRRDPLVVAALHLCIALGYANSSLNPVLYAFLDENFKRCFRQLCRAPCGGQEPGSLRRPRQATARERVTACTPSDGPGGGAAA
# ASSAY_PROCEDURE: DOR radioligand competition binding assay ([3H]-DPDPE)
# CONDITION_DESCRIPTION: Delta screening results, second Ki column; unit not printed (apparently M); read-out: Ki (second column)
PROPERTY_NAME: Ki

1. CC(C)C[C@H]1CN([C@@H](CC(C)C)CN2C(=N)NC[C@@H]2C)C(=N)N1; 6.69 µM
2. N=C1NC[C@H](Cc2ccccc2)N1C[C@H](Cc1ccccc1)N1C[C@H](Cc2ccc(O)cc2)NC1=N; 9.28 µM
3. C[C@H]1CNC(=N)N1C[C@H](Cc1ccccc1)N1C[C@H](Cc2ccc(O)cc2)NC1=N; 8.16 µM
4. Cc1cc(O)cc(C)c1C[C@@H](CN1C(=N)NC[C@@H]1C)N1C[C@H](Cc2ccc(O)cc2)NC1=N; 0.777 µM
